assay: Dynamic surface tension of aqueous solutions, maximum bubble pressure method; format: physicochemical; details: 0.1 wt % in distilled water, 0.1 b/s
experimental-readout: γ at 0.1 wt %, 0.1 b/s (dyne/cm)

Solved entries (count: 4):
In [3]: df
Out[3]:
                                   molecule  value_units  value_observed
0  CCCCOCC(O)CN(CCCOCCOCCOCCCN(CC(O)COCCCC)CC(O)COCCCC)CC(O)COCCCC (stereo not shown) [DAPDEG/4 BGE]      dyne/cm            37.4
1  CCCCOCC(O)CNC1CCC(CC2CCC(N(CC(O)COCCCC)CC(O)COCCCC)CC2)CC1 (stereo not shown) [PACM/3 BGE]      dyne/cm            50.2
2  CCCCOCC(O)CNCCCCCCN (racemic) [HDA/1 BGE]      dyne/cm            42.3
3  CCCCOCC(O)CN(CCCC(C)CN(CC(O)COCCCC)CC(O)COCCCC)CC(O)COCCCC (stereo not shown) [MPD/4 BGE]      dyne/cm            42.8

[1] CCCCOCC(O)CNCCCCCCN(CC(O)COCCCC)CC(O)COCCCC (stereo not shown) [HDA/3 BGE]
[2] CCCCC(CC)COCC(O)CN(CCN(CC(O)COCC(CC)CCCC)CC(O)COCC(CC)CCCC)CC(O)COCC(CC)CCCC (stereo not shown) [EDA/4 EHGE]
QUERY: Quick check, higher γ at 0.1 wt %, 0.1 b/s between 1 and 2 ? Identify your selection by its label.
RESULT: 2

---

assay: Dynamic surface tension of aqueous solutions, maximum bubble pressure method; type: physicochemical; details: saturated solution made using 1.0 wt % in water, 20 b/s
experimental-readout: γ limiting, 20 b/s (dyne/cm)

[I] CCCCOCC(O)CNC1CCC(CC2CCC(N(CC(O)COCCCC)CC(O)COCCCC)CC2)CC1 (stereo not drawn) [PACM/3 BGE]
[II] CCCCOCC(O)CN(CCCC(C)CN(CC(O)COCCCC)CC(O)COCCCC)CC(O)COCCCC (stereo not drawn) [MPD/4 BGE]
QUERY: API: POST /compare with I and II ; response names the item with higher γ limiting, 20 b/s. Write down the label attached to your selection.
RESULT: I
(I: 65.8 dyne/cm, II: 41.5 dyne/cm)

---

test: Dynamic surface tension of aqueous solutions, maximum bubble pressure method; type: physicochemical; conditions: saturated solution made using 1.0 wt % in water, 0.1 b/s
experimental-readout: γ limiting, 0.1 b/s (dyne/cm)

Example compounds with recorded γ limiting, 0.1 b/s:
>>> df
                                   compound  value_observed
0                 CCCCOCC(O)CNCCN (racemic)            36.7
1  CCCCC(CC)COCC(O)CNCCN(CC(O)COCC(CC)CCCC)CC(O)COCC(CC)CCCC (stereo not drawn)            33.5
2             CCCCOCC(O)CNCCCCCCN (racemic)            39.3

[P] CCCCOCC(O)CN(CCCCCCN(CC(O)COCCCC)CC(O)COCCCC)CC(O)COCCCC (stereo not drawn)
[Q] CCCCOCC(O)CN(CC(O)COCCCC)C1CCC(CC2CCC(N(CC(O)COCCCC)CC(O)COCCCC)CC2)CC1 (stereo not drawn)
QUERY: Smaller γ limiting, 0.1 b/s value, P vs Q ? Reply with the label of the item you choose.
RESULT: P
(P: 37.3 dyne/cm, Q: 58.5 dyne/cm)

---

assay: Foam test of DOSS solutions with added foam control agent (based on ASTM D 1173-53); assay type: physicochemical; settings: 0.1 wt % foam control agent added to 0.1 wt % DOSS in water, after 10 min
experimental-readout: Foam height after 10 min (cm)
# output: bare number, implied unit cm

>>> print(df.to_string())
                                   compound      experimental_readout  value_units  value_observed
0  CCCCC(CC)COCC(O)CN(CCN(CC(O)COCC(CC)CCCC)CC(O)COCC(CC)CCCC)CC(O)COCC(CC)CCCC (centres unmarked)  Foam height after 10 min           cm             2.1

QUERY: Give Foam height after 10 min for the following compound: CCCCOCC(O)CN(CCCCCCN(CC(O)COCCCC)CC(O)COCCCC)CC(O)COCCCC (centres unmarked)
RESULT: 1.2

QUERY: Give the measured Foam height after 10 min for CCCCOCC(O)CNCCCCCCN(CC(O)COCCCC)CC(O)COCCCC (centres unmarked)
RESULT: 0

QUERY: Name the recorded Foam height after 10 min of the compound listed here: CCCCOCC(O)CNCCCOCCOCCOCCCN (centres unmarked)
RESULT: 0.2

QUERY: Tell me measured Foam height after 10 min for CCCCOCC(O)CN(CC(O)COCCCC)C1CCC(CC2CCC(N(CC(O)COCCCC)CC(O)COCCCC)CC2)CC1 (centres unmarked) please.
RESULT: 1.8

QUERY: Give a short answer stating reported Foam height after 10 min for CC(C)COCC(O)CNCCN (racemic) .
RESULT: 0.3

QUERY: // Input: CCCCC(CC)COCC(O)CNCCN (mixture of isomers) . Output its Foam height after 10 min only.
RESULT: 0

QUERY: Please indicate Foam height after 10 min recorded for CCCCOCC(O)CNCCCCCCN (racemic)
RESULT: 0

QUERY: Report Foam height after 10 min for CC(C)COCC(O)CNCCN(CC(O)COCC(C)C)CC(O)COCC(C)C (centres unmarked)
RESULT: 0.7

QUERY: Give the value of Foam height after 10 min reported for the following: CCCCOCC(O)CNC1CCC(CC2CCC(N(CC(O)COCCCC)CC(O)COCCCC)CC2)CC1 (centres unmarked)
RESULT: 1.5

QUERY: Find the measured Foam height after 10 min of CCCCOCC(O)CN(CCCC(C)CN(CC(O)COCCCC)CC(O)COCCCC)CC(O)COCCCC (centres unmarked) and report it.
RESULT: 0.5

---

assay: Dynamic surface tension of aqueous solutions, maximum bubble pressure method; format: physicochemical; details: 0.1 wt % in distilled water, 0.1 b/s
experimental-readout: γ at 0.1 wt %, 0.1 b/s (dyne/cm)

>>> df
                                   compound  value_observed
0  CC(C)COCC(O)CNCCN (racemic) [EDA/1 IBGE]            47.9

[I] CC(C)COCC(O)CNCCN(CC(O)COCC(C)C)CC(O)COCC(C)C (stereo not drawn) [EDA/3 IBGE]
[II] CCCCOCC(O)CN(CC(O)COCCCC)C1CCC(CC2CCC(N(CC(O)COCCCC)CC(O)COCCCC)CC2)CC1 (stereo not drawn) [PACM/4 BGE]
QUERY: Of I versus II , which is the one with smaller reported γ at 0.1 wt %, 0.1 b/s? Mark your selection by writing its label.
RESULT: I
(I: 38.9 dyne/cm, II: 70.6 dyne/cm)

---

experiment: Dynamic surface tension of aqueous solutions, maximum bubble pressure method; assay type: physicochemical; details: saturated solution made using 1.0 wt % in water, 1 b/s
experimental-readout: γ limiting, 1 b/s (dyne/cm)

>>> df
                                   compound  value_observed
0  CCCCOCC(O)CN(CCN(CC(O)COCCCC)CC(O)COCCCC)CC(O)COCCCC (stereo not shown) [EDA/4 BGE]            37.0
1  CCCCC(CC)COCC(O)CNCCN(CC(O)COCC(CC)CCCC)CC(O)COCC(CC)CCCC (stereo not shown) [EDA/3 EHGE]            36.0
2  CCCCC(CC)COCC(O)CN(CCN(CC(O)COCC(CC)CCCC)CC(O)COCC(CC)CCCC)CC(O)COCC(CC)CCCC (stereo not shown) [EDA/4 EHGE]            50.6
3  CCCCOCC(O)CNC1CCC(CC2CCC(N(CC(O)COCCCC)CC(O)COCCCC)CC2)CC1 (stereo not shown) [PACM/3 BGE]            54.0
4  CCCCOCC(O)CNCCCOCCOCCOCCCN (stereo not shown) [DAPDEG/1 BGE]            40.3
5  CCCCOCC(O)CNCCCOCCOCCOCCCN(CC(O)COCCCC)CC(O)COCCCC (stereo not shown) [DAPDEG/3 BGE]            38.7
6  CCCCOCC(O)CNCCCCCCN(CC(O)COCCCC)CC(O)COCCCC (stereo not shown) [HDA/3 BGE]            39.1
7     CCCCOCC(O)CNCCN (racemic) [EDA/1 BGE]            37.2
8  CCCCOCC(O)CN(CCCOCCOCCOCCCN(CC(O)COCCCC)CC(O)COCCCC)CC(O)COCCCC (stereo not shown) [DAPDEG/4 BGE]            34.5
9  CCCCOCC(O)CNC1CCC(CC2CCC(N)CC2)CC1 (mixture of isomers) [PACM/1 BGE]            44.5
